Source listed as patent US20250027068.

biological target: pooled human IgG (human IgG1, 2, 3 and 4)
PROPERTY_NAME: Enzyme Activity Endpoint Assay: Fab′2

INSERT INTO results (protein, property_name, result) VALUES
  ('PRT-567 (protein) MANQEIRYSEETPSTITSVWTKGVTPPTDFIQNEDVLHAPYIANQGWYDITKTFNGKDDLLCGAATAGNMLHWWFDQNKEQIENYLKKHPEKQKINFNGEQMFDVKEAIDTKDSQTDSALFEYFKDKAFPYLSTKHLGVFPDHVIDMFINGYRLSLTNHGPTPVKRGTKDPRGGIFDAVFTRGDQSKLLTSRHDFKEKTLNEISDLIKQELTEGKALGLSHTYANVRINHVINLWGADFNAEGNLEAIYVTDSDSNASIGMKKYYVGVNSAGKVAISAKEIEGDNIGAQVLGLFTLSTGQDIWNQTNLEHHHHHH', 'Enzyme Activity Endpoint Assay: Fab′2', '385 ng/µL'),
  ('PRT-693 (protein) MQITSVWTKGVIPPTPEQFRYNNEDVIHAPYLPNQGWYDITKTFNGGDNLLCGAATAGNMLHWWFDQNKTEIEAYLSKYPEKQKIIFNNQELFDLRAAINTKDSQTNSQLFNYFRDKAFPNLSARQLGVMPDLVLDMFINGYYLNVFKTQSTDVNRPYQDRDKRGGIFDHVFGRGDQTTLLTARHDLKNGTLNDISTLIKQELQSGKALALSHTYANVSISHVINLWGADFNAEGNLEAIYVTDSDANSSIGMKKYYVGVNAHGKVAISAKKIEGENIGAQVLGLFTLSSGKEIWQKLSLEHHHHHH', 'Enzyme Activity Endpoint Assay: Fab′2', '1280 ng/µL'),
  ('PRT-538 (protein) MANQEIRYSSDSEWANKKVWVYGITPPEEGAWKYSTYYLPWKKEYGWYDCNKRNPTADGMMCWAATASNLLHWWIAQNKEYIDLYGDKYKGPDKINFNGEQMFDVKEYIDPLDKPQESDIFQCFIDKSFADLSTKHEAGYGDEGINWFIHGIIPSSPAHGPTPVKLRKPYNPAGYFKDVFPRGDGVKLLSNNGDFKELGKERFNETIKDALKNKKGIGLSIGPVNVRSGHVVTMWGAEFDENGDVSYIYIADNNDRWGVGCIRYQIVYEEGGTYTCYKTEIINEDRPIPINRLVTLELGEEYWKQTNLEHHHHHH', 'Enzyme Activity Endpoint Assay: Fab′2', '5 ng/µL'),
  ('PRT-519 (protein) MVTSVWTKGVTPPTDFIKGEDVFHAPYKAGQGWYDITKTFNGKDNLLCGAATAGNMLHWWFDQNKEYIEAYLKKHPEKQKIIFNNQELFDLKAAINTKGSQKNSELFNYFRDKAFPNLSARRLGVFPDLVLDMFINGYYLNVTKTQTTDVNRTYQEKDKRGGIFDAVFTRGVQSKLLTSRHDLKNKGLKEISDLIKQELTEGKALGLSHTYANVRINHVINLWGADFDSDGNLKAIYVTDSDTNASIGMKKYFVGVNSAGKVAISAKEIKEDNIGAQVLGLFTLSTGQDIWNQTNLEHHHHHH', 'Enzyme Activity Endpoint Assay: Fab′2', '0 ng/µL'),
  ('PRT-533 (protein) MANQEIRYSSDSEWANKKVWVYGITPPEEGAWKYSTYYLPWKKEYGWYDCNKRNPTADGMMCWAATASNLLHWWIAQNKEYIDLYGDKYKGPDKINFNGEQMFDVKEYIDPLDKPQESDIFQCFIDKSFADLSTKHEAGYGDAGINWFIHGIIPSSPAHGPTPVKLDYPYNPAGYFKDVFPRGDGVVLLGNNGDFKELSKERFNETIKDALKNKKAIGLSIGPVNVRSSHVVTIWGAEFDENGDVSYIYMADNNDRWGVGCIRYQIVYEEGGTYTCYKTEIIPSDRPIPINRLVTLELGEEYWKQTNLEHHHHHH', 'Enzyme Activity Endpoint Assay: Fab′2', '0 ng/µL'),
  ('PRT-406 (protein) MVTSVWTKGVTPPADFTQGEDVFHAPYVANQGWYDITKTFNRKDDLLCGAATAGNMLHWWFDQNKEYIEAYLKKHPEKQKIMFGDQELLDVRKAINTKGSQKNSELFNYFRDKAFPNLSARRLGVMPDLVLDMFINGYYLNVTKTQTTDVNRTYQEKDKRGGIFDAVFTRGDQSKLLTSRHDFKEKGLKEISDLIKQELTEGKALGLSHTYANVRINHVINLWGADFDSDGNLKAIYVTDSDSNASIGMKKYFVGVNSAGKVAISAKEIKEDNIGAQVLGLFTLSTGQDIWNQTN', 'Enzyme Activity Endpoint Assay: Fab′2', '435 ng/µL'),
  ('PRT-528 (protein) MANQEIRYSEETPKTITSVWTKGVTPPTDFIQNEDVLHAPYIANQGWYDITKTFNGKDDLLCGAATAGNMLHWWFDQNKEEIENYLKKHPEKQKINFNGEQMFDVKEAIDTKDSQTDSALFEYFKDKAFPNLSTKHLGVMPDLVLDMFINGYYLSLGKHGPTPVKRGTKDPRGGIFDAVFTRGDQSKLLTARHDFKEKTLNEISDLIKQELTEGKALALSHTYANVRINHVINLWGADFNSEGNLEAIYVTDSDSNASIGMKKYYVGVNAAGKVAISAKEIEGDNIGAQVLGLFTLSTGQDIWEQTNLEHHHHHH', 'Enzyme Activity Endpoint Assay: Fab′2', '14 ng/µL'),
  ('PRT-255 (protein) MVTSVWTKGVTPPTNFTYGEDVLHAPYVANQGWYDITKTFNGKDDLLCGAATAGNMLHWWFDQNKEQIENYLKKHPEKQKINFNGEQMFDVKEAIDTKDSQLDSKLFEYFLEKAFPNLSTKHLGVFPDHVIDMFINGYRLSLLNHGPTPVKRGSKDPRGGIFDAVFTRGDQSKLLTNRHDFKEKTLKEISDLIKQELTEGKALGISHTYANVGINHVINLWGADFDAEGNLEAIAVTDSDSNASIGMKKYFVGVNSSGKVAISAKEIEEDNIGAQVLGLFTLSTGQDIWNQTN', 'Enzyme Activity Endpoint Assay: Fab′2', '58 ng/µL');
